# reported melting point; entries follow

For orientation, consider the following solved cases.
[
  {
    "molecule": "CC1(C)CCC(C)(C)c2cc(OCc3ccc(CC(N)=O)cc3)ccc21",
    "test.readout": "melting point",
    "reported.value": "202 to 205 °C"
  },
  {
    "molecule": "CC1(C)Oc2ccc([N+](=O)[O-])cc2C(n2ccccc2=O)C1(C)O (stereo unspecified)",
    "test.readout": "melting point",
    "reported.value": "214 °C"
  },
  {
    "molecule": "CC(C)(C)OC(=O)NC(C)(C)c1ccc(Br)nc1",
    "test.readout": "melting point",
    "reported.value": "100 to 103 °C"
  },
  {
    "molecule": "CC(C)(C)OC(=O)Nc1ccc(OCc2ccccc2)c(C(=O)O)c1",
    "test.readout": "melting point",
    "reported.value": "136 to 139 °C"
  },
  {
    "molecule": "COc1ccc2c(c1)C(=O)N(c1ccc3c(c1)NCCN3)C2",
    "test.readout": "melting point",
    "reported.value": "159 to 163 °C"
  }
]

Entry under review: Cc1ccc2c(c1)oc1c(C(=O)NC3CCCCC3)nn(-c3ccc(Cl)cc3Cl)c12 . Reported melting point?
140 to 142 °C

# melting point lookup, item COC1Nc2c(ccc(C)c2O)C(=O)N2CCCC12 (stereo unspecified)
152 to 156 °C

Which value of melting point has been reported for CC(C)(C=O)NC(=O)OC(C)(C)C in the records?
84 to 85 °C

* * *

test.readout: melting point (°C)

[
  {
    "smiles.str": "CCC(CC)(CC(=O)Nc1cccc(OCc2ccc3ccc(Br)cc3n2)c1)C(=O)O",
    "unit.spec": "°C",
    "reported.value": 175
  },
  {
    "smiles.str": "O=C(Nc1ccc2ccc(Cl)nc2n1)c1cccc(F)c1",
    "unit.spec": "°C",
    "reported.value": 202
  }
]

* * *

test.readout: melting point

A selection of reference data follows.
[
  {
    "compound": "CC(=O)NC1=CC(C)(C)Oc2cc3nonc3cc21",
    "reported.value": "218 to 220 °C"
  },
  {
    "compound": "CCCCNCCOc1ccc(NC(=O)c2c[nH]c3c2C(=O)CCC3)cc1F",
    "reported.value": "290 to 292 °C"
  },
  {
    "compound": "O=S1(=O)c2ccccc2NC(CO)c2cccn21 (stereo not given)",
    "reported.value": "135 to 136 °C"
  },
  {
    "compound": "CCN1c2ccccc2CC1CNC(=N)N (stereo not given)",
    "reported.value": "199 °C"
  },
  {
    "compound": "CC(C(=O)O)c1ccc2c(c1)C(=O)c1ccc(Cl)cc1CS2 (stereo not given)",
    "reported.value": "137 to 138 °C"
  }
]

# melting point lookup, item CCOc1cn(C)cc(-c2cccc(C(F)(F)F)c2)c1=O
131 to 133 °C

// lookup melting point for Cn1c(=O)c(C#N)c(Cl)c2ccccc21
235 °C

* * *

test.readout: melting point

For orientation, consider the following solved cases.
[
  {
    "molecule": "Nc1ncccc1OCc1ccccc1Cl",
    "melting point": "95 to 100 °C"
  },
  {
    "molecule": "CC(NC(=O)CC(CNC(=O)OC(C)(C)C)c1ccc(Cl)c(Cl)c1)c1ccccc1 (stereo not given)",
    "melting point": "161 to 162 °C"
  },
  {
    "molecule": "Nc1cc(Br)nc(Cl)c1OC(F)F",
    "melting point": "138 to 140 °C"
  }
]

Alright, here's another molecule for you.
What does the data say about its melting point? Entry: O=C(O)CCC(=O)c1ccc(NC(=O)CCCl)cc1
181 to 182 °C
